Biological target: T1, recombinant, soluble human ASGR-1 (human, UniProt P07306 62-291)
T1 construct: biotinylated in the binning assay; also called soluble huASGR-1; Soluble ASGR-1 (Amgen)
T1 sequence: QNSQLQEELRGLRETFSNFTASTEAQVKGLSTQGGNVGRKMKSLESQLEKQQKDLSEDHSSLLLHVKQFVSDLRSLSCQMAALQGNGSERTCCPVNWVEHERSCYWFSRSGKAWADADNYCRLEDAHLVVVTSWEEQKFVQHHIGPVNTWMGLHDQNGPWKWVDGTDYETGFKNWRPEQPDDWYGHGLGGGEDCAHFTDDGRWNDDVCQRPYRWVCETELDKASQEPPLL
Test: Octet BLI dissociation, pH 5.6 plus calcium
Consider the following binders; for each one, report its % Change Compared to pH 7.4 + Calcium.
Answers are plain numbers, in %.

{"binder": "7G4 (antibody, V domains shown, hybridoma mAb) VH: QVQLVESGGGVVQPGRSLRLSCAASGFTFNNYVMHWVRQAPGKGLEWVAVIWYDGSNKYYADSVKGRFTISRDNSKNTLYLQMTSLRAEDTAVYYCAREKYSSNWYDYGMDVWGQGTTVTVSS VL: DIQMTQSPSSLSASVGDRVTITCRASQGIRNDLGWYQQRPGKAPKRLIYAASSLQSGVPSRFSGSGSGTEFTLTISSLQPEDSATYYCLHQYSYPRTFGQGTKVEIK", "result_units": "%", "% Change Compared to pH 7.4 + Calcium": 1}

Inquiry: % Change Compared to pH 7.4 + Calcium lookup needed for 190G11 (antibody, V domains shown, hybridoma mAb) VH: QVQLVESGGGVVQPGRSLRLSCAASGFTFSIYGMHWVRQAPGKGLEWVAVIWYDGSNKNYADSVKGRFTISRDNSKNTLYLQMNSLRAEDTAVYYCARDQGVGYDGLDVWGQGTTVTVSS VL: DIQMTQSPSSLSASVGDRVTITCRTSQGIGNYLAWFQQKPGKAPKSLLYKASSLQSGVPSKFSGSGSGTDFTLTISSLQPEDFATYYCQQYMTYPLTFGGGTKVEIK , thanks.
Reply text: -8
